- PROTOCOL DETAILS: Selectivity index, ratio of EC50 for human MCF10A cells under UV irradiation at 1.5 J/cm2 to EC50 for human HT-29 cells under UV irradiation at 1.5 J/cm2
- Assay type: toxicity
- EXPERIMENTAL CONDITIONS: MCF10A cells versus HT-29 cells, read-out: Ratio EC50
Overview of recorded selectivity ratio for various molecules
MEASUREMENT KIND: selectivity ratio

{"CHEMICAL STRING": "COc1ccccc1-c1ccc2c(C)nc3oc(-c4ccccc4)nc3c2n1", "COMPARISON OPERATOR": "=", "VALUE MEASURED": 6}
{"CHEMICAL STRING": "COc1ccc(-c2ccc3c(C)nc4c(nnn4-c4ccc(OC)cc4)c3n2)cc1", "COMPARISON OPERATOR": ">", "VALUE MEASURED": 29}
{"CHEMICAL STRING": "COc1ccc(-c2ccc3c(C)nc4c(nnn4-c4ccccc4)c3n2)cc1", "COMPARISON OPERATOR": "=", "VALUE MEASURED": 1.01}
{"CHEMICAL STRING": "Cc1ccc2c(C)nc3oc(-c4ccccc4)nc3c2n1", "COMPARISON OPERATOR": ">", "VALUE MEASURED": 8}
{"CHEMICAL STRING": "COc1ccc(-n2nnc3c4nc(-c5ccccc5OC)ccc4c(C)nc32)cc1", "COMPARISON OPERATOR": ">", "VALUE MEASURED": 1}
{"CHEMICAL STRING": "COc1ccc(-c2nc3c(nc(C)c4ccc(C)nc43)o2)cc1", "COMPARISON OPERATOR": ">", "VALUE MEASURED": 12}
{"CHEMICAL STRING": "COc1ccc(-c2nc3c(nc(C)c4ccc(-c5ccccc5)nc43)o2)cc1", "COMPARISON OPERATOR": "=", "VALUE MEASURED": 72}
{"CHEMICAL STRING": "COc1ccccc1-c1ccc2c(C)nc3oc(-c4cc(OC)c(OC)c(OC)c4)nc3c2n1", "COMPARISON OPERATOR": "=", "VALUE MEASURED": 9}
{"CHEMICAL STRING": "COc1cc(-c2nc3c(nc(C)c4ccc(-c5ccccc5)nc43)o2)cc(OC)c1OC", "COMPARISON OPERATOR": "=", "VALUE MEASURED": 7}
